# test-description: Half life in mouse hepatocytes
# Type: ADME, cell-based, Hepatocyte
quantity-name: half-life

The molecule identified as `O=C(O)[C@H]1CC[C@H](C(=O)N2CC[C@@]3(S(=O)(=O)c4ccc(F)cc4)c4ccc(OCc5c(F)cccc5C(F)(F)F)cc4CC[C@@H]23)CC1` registered its half-life at > 2 h

====

# test-description: AUC in C57BL6 mouse at 2 mg/kg, iv qd administered as bolus dose after 24 hrs by LC-MS/MS analysis
# Type: ADME, organism-based
# Parameters: time < 24 hr, dose 2 mg/kg, route intravenous
# setup-conditions: in vivo
Parameter AUC at 24 h: see the listing below.
Write the answer as a number in µM·h, unit excluded.

The molecule identified as `C[C@]1(C(=O)N2CC[C@@]3(S(=O)(=O)c4ccc(F)cc4)c4ccc(OCc5c(F)cccc5C(F)(F)F)cc4CC[C@@H]23)CC[C@H](C(=O)O)CC1` registered its AUC at 24 h at 6.5

Here is another molecule to look at.
The molecule identified as `O=C(O)[C@H]1CC[C@H](C(=O)N2CC[C@@]3(S(=O)(=O)c4ccc(F)cc4)c4ccc(OCc5c(F)cccc5C(F)(F)F)cc4CC[C@@H]23)CC1` registered its AUC at 24 h at 5.4
